// abundance fitness lookup, one value per entry
B1: MEF2-activating motif and SAP domain-containing transcriptional regulator, residues 170 to 204; numbered along this chain, Q6ZN01 (parent)
chain: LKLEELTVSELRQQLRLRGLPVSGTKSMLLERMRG

variants of: B1; test: abundance fitness (aPCA) (normalised: wild type 0, dead -1); higher = more abundant; growth selection in yeast, the domain comes from the species named; settings: Homo sapiens
Reply: number alone, nothing else.

# annotated cases, reported abundance fitness shown
In [3]: df
Out[3]:
                           monomer_sequence          parameter  reported_value
0  LKLEELTVSELRQQLRLRGLPSSGTKSMLLERMRG [V22S]  abundance fitness          -0.168
1  LKLEELTVSELRQQLRLRGLPVSGTKSSLLERMRG [M28S]  abundance fitness           -0.36

Consider the variant shown here: LKLEELTYSELRQQLRLRGLPVSGTKSMLLERMRG [V8Y] What is its recorded abundance fitness?
-0.576

// query abundance fitness value for entry LKLEELTVSELRQQLRLRGLPVSQTKSMLLERMRG [G24Q]
-0.935

Which abundance fitness is listed for LKLEELTVSELRQQLRLRGLPNSGTKSMLLERMRG [V22N] ?
-0.407

Bench note: what abundance fitness did LKLEELTVSELRQQLDLRGLPVSGTKSMLLERMRG [R16D] show?
-0.331

Can you look up the measured abundance fitness of LKLIELTVSELRQQLRLRGLPVSGTKSMLLERMRG [E4I] for me?
-0.464
